# test.target: P2X7R (Homo sapiens, UniProt Q99572)
# Construct: expressed in transfected cells; host or cells: HEK-293
# Sequence (Q99572 1-595): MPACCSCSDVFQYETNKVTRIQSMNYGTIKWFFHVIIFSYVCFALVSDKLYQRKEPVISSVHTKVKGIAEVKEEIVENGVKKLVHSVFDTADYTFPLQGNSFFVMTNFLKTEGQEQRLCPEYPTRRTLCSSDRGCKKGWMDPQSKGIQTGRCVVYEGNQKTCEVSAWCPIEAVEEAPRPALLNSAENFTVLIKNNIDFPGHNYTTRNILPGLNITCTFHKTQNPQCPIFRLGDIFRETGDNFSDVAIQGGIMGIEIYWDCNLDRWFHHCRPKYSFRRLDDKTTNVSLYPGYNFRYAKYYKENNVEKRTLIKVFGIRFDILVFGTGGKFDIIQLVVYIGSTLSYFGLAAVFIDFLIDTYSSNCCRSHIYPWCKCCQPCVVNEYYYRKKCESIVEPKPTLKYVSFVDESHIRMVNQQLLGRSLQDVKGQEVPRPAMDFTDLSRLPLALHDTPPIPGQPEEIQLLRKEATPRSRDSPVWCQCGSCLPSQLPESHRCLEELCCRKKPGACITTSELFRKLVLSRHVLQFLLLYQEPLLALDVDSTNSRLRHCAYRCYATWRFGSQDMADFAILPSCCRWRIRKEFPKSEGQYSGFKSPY
# test.summary: Yo-Pro-1 uptake assay (Yo-Pro-1 Assay) in HEK-293 cells transiently transfected with P2X7R
# Format: cell-based
# experimental.parameters: HEK293; compound at 5 μM; 30 μM bzATP stimulus; reading 1 hour after stimulation; transfected HEK-293 cells; read-out: Percentage of activity remains in the presence of the compound at 5 μM, P2X7R (Yo-Pro-1 Assay)
endpoint.name: remaining activity at 5 µM (%)

O=C(CCc1ccccc1)N1CCN(S(=O)(=O)c2ccc(NC3CCCCC3)cc2)CC1 [#33]; -8.5
CCCCNc1ccc(S(=O)(=O)N2CCCC(NC(=O)CCc3ccccc3)C2)cc1 (stereo not drawn) [#15]; -12.2
O=C(CCc1ccccc1)NC1CCCN(S(=O)(=O)c2ccc(N3CCCCC3)c(Cl)c2)C1 (stereo not drawn) [#45]; 33.1
O=C(CCc1ccccc1)NC1CCCN(c2ccc(S(=O)(=O)Nc3ccccc3)cc2)C1 (stereo not drawn) [#50]; -1.1
CC1CCCN(c2ccc(S(=O)(=O)N3CCCC(NC(=O)CCc4ccccc4)C3)cc2)C1 (stereo not drawn) [#44]; -5.1
O=C(CCc1ccccc1)NC1CCCN(c2ccc(S(=O)(=O)NCc3ccco3)cc2)C1 (stereo not drawn) [#52]; 36.9
O=C(CCc1ccccc1)NC1CCCN(S(=O)(=O)c2ccc(-n3cc(Br)cn3)cc2)C1 (stereo not drawn) [#9]; 10.2
O=C(CCc1ccccc1)NC1CCCN(S(=O)(=O)c2ccc(N3CCC(C(F)(F)F)CC3)cc2)C1 (stereo not drawn) [#42]; -1.7
O=C(CCc1ccccc1)NC1CCCN(S(=O)(=O)Cc2ccc(Br)cc2)C1 (stereo not drawn) [#8]; -14.5

* * *

# test.target: P2X7R (Homo sapiens)
# Construct: expressed in transfected cells; host or cells: HEK-293
# Sequence (Q99572 1-595): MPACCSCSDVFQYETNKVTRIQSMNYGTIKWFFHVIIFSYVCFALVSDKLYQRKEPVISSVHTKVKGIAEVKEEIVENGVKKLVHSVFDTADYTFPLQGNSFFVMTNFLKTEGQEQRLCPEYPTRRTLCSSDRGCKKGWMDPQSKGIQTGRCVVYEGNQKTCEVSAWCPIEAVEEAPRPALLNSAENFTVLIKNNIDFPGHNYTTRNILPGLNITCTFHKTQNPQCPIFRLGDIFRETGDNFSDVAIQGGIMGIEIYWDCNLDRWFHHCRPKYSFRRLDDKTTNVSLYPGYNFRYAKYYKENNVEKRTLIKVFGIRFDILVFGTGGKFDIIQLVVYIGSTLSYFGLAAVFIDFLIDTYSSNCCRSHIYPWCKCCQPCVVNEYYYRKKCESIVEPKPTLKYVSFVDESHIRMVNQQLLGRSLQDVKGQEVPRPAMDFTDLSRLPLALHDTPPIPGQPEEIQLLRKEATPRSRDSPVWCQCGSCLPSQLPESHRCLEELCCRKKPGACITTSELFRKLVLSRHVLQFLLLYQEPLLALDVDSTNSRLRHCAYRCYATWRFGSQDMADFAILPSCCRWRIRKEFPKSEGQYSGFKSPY
# test.summary: Yo-Pro-1 uptake assay (Yo-Pro-1 Assay) in HEK-293 cells transiently transfected with P2X7R
# Assay type: cell-based
# experimental.parameters: HEK293; compound at 5 μM; 30 μM bzATP stimulus; reading 1 hour after stimulation; transfected HEK-293 cells; read-out: Percentage of activity remains in the presence of the compound at 5 μM, P2X7R (Yo-Pro-1 Assay)
// remaining activity at 5 µM lookup, one value per entry
endpoint.name: remaining activity at 5 µM (%)

O=C(CCc1ccccc1)NC1CCCN(S(=O)(=O)c2ccc(F)cc2)C1 (stereo not drawn) [#3]; 13.5
O=S(=O)(c1ccccc1)C1CN(S(=O)(=O)c2ccc(N3CCOCC3)cc2)C1 [#11]; 80.9
O=C(CCc1ccccc1)NC1CCCN(S(=O)(=O)c2ccc(N3CCOCC3)cc2)C1 (stereo not drawn) [#12]; 44.3
O=C(CCc1ccccc1)N1CCN(S(=O)(=O)c2ccc(N3CCOCC3)cc2)CC1 [#32]; 54.3
COCCOc1ccc(S(=O)(=O)N2CCCC(NC(=O)CCc3ccccc3)C2)cc1 (stereo not drawn) [#17]; 53.4
O=C(CCc1ccccc1)NC1CCCN(c2ccc(S(=O)(=O)N3CCCCC3)cc2)C1 (stereo not drawn) [#54]; -9.3
CN1CCN(c2ccc(S(=O)(=O)N3CCCC(NC(=O)CCc4ccccc4)C3)cc2)CC1 (stereo not drawn) [#18]; 41.5
CC(C)COc1ccc(S(=O)(=O)N2CCCC(NC(=O)CCc3ccccc3)C2)cc1 (stereo not drawn) [#6]; 10.7
O=C(CCc1ccccc1)NC1CCCN(c2ccc(S(=O)(=O)N3CCCC3)cc2)C1 (stereo not drawn) [#55]; 4.6

* * *

// remaining activity at 5 µM lookup, one value per entry
# test.target: Human P2X1 receptor (P2X1R) (Homo sapiens)
# Construct: expressed in transfected cells; host or cells: HEK-293
# Sequence (P51575 whole entry): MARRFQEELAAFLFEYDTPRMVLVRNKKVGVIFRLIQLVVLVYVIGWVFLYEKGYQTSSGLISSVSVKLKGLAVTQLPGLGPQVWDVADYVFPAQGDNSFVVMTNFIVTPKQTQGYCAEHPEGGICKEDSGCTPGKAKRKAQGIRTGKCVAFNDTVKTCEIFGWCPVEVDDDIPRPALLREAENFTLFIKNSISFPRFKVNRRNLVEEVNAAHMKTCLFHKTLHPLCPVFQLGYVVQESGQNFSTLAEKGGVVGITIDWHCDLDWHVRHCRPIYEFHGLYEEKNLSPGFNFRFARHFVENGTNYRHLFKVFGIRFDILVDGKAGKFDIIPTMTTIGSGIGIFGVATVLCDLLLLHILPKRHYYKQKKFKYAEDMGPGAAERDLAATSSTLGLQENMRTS
# test.summary: Receptor-mediated calcium entrance assay (Calcium Assay), P2X1R transfected HEK-293 cells
# Format: cell-based
# experimental.parameters: HEK293, compound at 5 μM, ATP 20 μM stimulus, read-out: Percentage of activity remains in the presence of the compound at 5 μM, P2X1R (Calcium Assay)
endpoint.name: remaining activity at 5 µM (%)

O=C(CCc1ccccc1)N1CCN(S(=O)(=O)c2ccc(F)cc2)CC1; 70.1
O=C(CCc1ccccc1)N1CCN(S(=O)(=O)c2ccc(N3CCCC3)cc2)CC1; 56.3
CC(C)COc1ccc(S(=O)(=O)N2CCCC(NC(=O)CCc3ccccc3)C2)cc1 (stereo not shown); 51
O=C(CCc1ccccc1)NC1CCCN(S(=O)(=O)c2ccc(OCc3ccccc3)cc2)C1 (stereo not shown); 43.7
O=C(CCc1ccccc1)NC1CCCN(S(=O)(=O)c2ccc(N3CCCC3)cc2)C1 (stereo not shown); 54.2
O=C(CCc1ccccc1)NC1CCCN(c2ccc(S(=O)(=O)NCc3ccco3)cc2)C1 (stereo not shown); 63.4
O=C(CCc1ccccc1)N1CCN(S(=O)(=O)c2ccc(NC3CCCCC3)cc2)CC1; 44.9
O=C(CCc1ccccc1)NC1CCCN(S(=O)(=O)c2ccc(N3CCC(C(F)(F)F)CC3)cc2)C1 (stereo not shown); 66.3
O=S(=O)(c1ccccc1)C1CN(S(=O)(=O)c2ccc(N3CCCCC3)cc2)C1; 51.5
CC(C)OC1CCN(c2ccc(S(=O)(=O)N3CCCC(NC(=O)CCc4ccccc4)C3)cc2)CC1 (stereo not shown); 74.5
CCCCNc1ccc(S(=O)(=O)N2CCC(C(=O)O)CC2)cc1; 50.8
O=C(CCc1ccccc1)NC1CCCN(c2ccc(S(=O)(=O)N3CCCCC3)cc2)C1 (stereo not shown); 48.4
O=C(CCc1ccccc1)NC1CCCN(c2ccc(S(=O)(=O)Nc3ccccc3)cc2)C1 (stereo not shown); 47.8
COc1ccc(S(=O)(=O)N2CCCC(NC(=O)CCc3ccccc3)C2)cc1 (stereo not shown); 39.1
O=C(NCCc1ccccc1)C1CCN(S(=O)(=O)c2ccc(N3CCOCC3)cc2)CC1; 75.5
CCCCNc1ccc(S(=O)(=O)N2CCCC(NC(=O)CCc3ccccc3)C2)cc1 (stereo not shown); 70.1
O=C(CCc1ccccc1)N1CCN(S(=O)(=O)c2ccc(N3CCCCC3)cc2)CC1; 59.3
O=S(=O)(c1ccccc1)C1CN(S(=O)(=O)c2ccc(N3CCOCC3)cc2)C1; 44.3
CC1CCN(c2ccc(S(=O)(=O)N3CCCC(NC(=O)CCc4ccccc4)C3)cc2)CC1 (stereo not shown); 39
